B1: HESX1 (parent)
chain: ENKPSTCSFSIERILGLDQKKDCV

variants of: B1; test: protein stability index of a GFP-peptide fusion (GPS, HEK-293T) (PSI 1-6); higher = more stable; conditions: c terminus: a fixed tail appended;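 further: lentivirally expressed fusions sorted by FACS into six bins by GFP to DsRed ratio, PSI derived from sequencing read proportions per bin multiplied by bin number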
Each entry below carries its reported protein stability index.
Please state the value as a number alone, without comment.

mutation_annotation	value_measured
C23Q	3.42
F9H	4.15
L15R	3.61

Now look at this entry.
Query string: What does the data say about its protein stability index? Entry: `T6H`
Result string: 3.24
